pIC50: −log10 of the molar value.
Here, compounds appear alongside pIC50 reported for Prolyl endopeptidase FAP (Homo sapiens, UniProt Q12884) in the literature.
measureName: pIC50

> print(dat)
                                   compound                                targetdesc  numericvalue
1  CC(C)NCC(=O)N1CCCC1B(O)O (stereo not shown)  Prolyl endopeptidase FAP (Homo sapiens, UniProt Q12884)          6.00
2  Cc1cc(C(=O)NCC(=O)N2[C@H](C#N)C[C@@H]3C[C@@H]32)c2cc(Cl)ccc2n1  Prolyl endopeptidase FAP (Homo sapiens, UniProt Q12884)          7.74
3  CC(C)CNC(=O)c1cc2nc(N3CCC[C@@H](N)C3)n(Cc3ccccc3C#N)c(=O)c2s1  Prolyl endopeptidase FAP (Homo sapiens, UniProt Q12884)          3.90
4  C[C@]1(O)CCN(c2ccc3nccc(C(=O)NCC(=O)N4CSC[C@H]4C#N)c3c2)C1  Prolyl endopeptidase FAP (Homo sapiens, UniProt Q12884)          9.80

---

Here, compounds appear alongside pIC50 reported for Prolyl endopeptidase FAP (Homo sapiens, UniProt Q12884) in the literature.
pIC50: −log10 of the molar value.
Hi all, reminder that labels come from pIC50, split as A: < 9; B: ≥ 9 and < 10; C: ≥ 10

> print(dat)
                                    compound  grouplabel
 1  N#C[C@@H]1CSCN1C(=O)CNC(=O)c1ccnc2ccc(N3CC(OC(F)(F)F)C3)cc12           B
 2  N#C[C@@H]1CSCN1C(=O)CNC(=O)c1ccnc2ccc(N3CC(N4CCOCC4)C3)cc12           C
 3  COC(C)c1ccc2c(C(=O)NCC(=O)N3[C@H](C#N)C[C@@H]4C[C@@H]43)ccnc2c1 (stereo partly drawn)           A
 4  N#Cc1ccccc1Cn1c(N2CCC[C@@H](N)C2)nc2cc(C(=O)NCc3ccccc3Cl)sc2c1=O           A
 5  COCCCNC(=O)c1cc2nc(N3CCC[C@@H](N)C3)n(Cc3ccccc3C#N)c(=O)c2s1           A
 6  CC(C)OC1CCN(c2ccc3nccc(C(=O)NCC(=O)N4CSC[C@H]4C#N)c3c2)CC1           C
 7  CC[C@H](NC(=O)CNC(=O)c1cccc2ccccc12)B(O)O           A
 8  N#C[C@@H]1CSCN1C(=O)CNC(=O)c1ccnc2ccc(N3C[C@H]4CCC[C@@H](C3)O4)cc12           C
 9  CC(OC(F)(F)F)c1ccc2c(C(=O)NCC(=O)N3[C@H](C#N)C[C@@H]4C[C@@H]43)ccnc2c1 (stereo partly drawn)           A
10  C[C@@H]1COC[C@H](C)N1c1cc2c(C(=O)NCC(=O)N3CSC[C@H]3C#N)ccnc2cc1Br           B
11  N#C[C@@H]1CSCN1C(=O)CNC(=O)c1ccnc2ccc(-n3cc4c(n3)CCCC4)cc12           C
12  COCCNC(=O)c1csc2c(=O)n(Cc3ccccc3C#N)c(N3CCC[C@@H](N)C3)nc12           A
13  C[C@@H]1CN(c2ccc3nccc(C(=O)NCC(=O)N4CSC[C@H]4C#N)c3c2)C[C@H](C)[C@]1(C)O           B

---

Here, compounds appear alongside IC50 reported for Prolyl endopeptidase FAP (Homo sapiens, UniProt Q12884) in the literature.
measureName: IC50

> print(dat)
                                   compound  measurename     result
1  C[C@@H]1CN(c2ccc3nccc(C(=O)NCC(=O)N4CSC[C@H]4C#N)c3c2)C[C@H]1C (single isomer, unassigned)         IC50     0.2 nM
2  CS(=O)(=O)Nc1csc2c(=O)n(Cc3ccccc3C#N)c(N3CCC[C@@H](N)C3)nc12         IC50  255000 nM
3  N#C[C@@H]1C[C@@H]2C[C@@H]2N1C(=O)CNC(=O)c1ccnc2cc(C(F)(F)F)ccc12         IC50    0.81 nM
4  N#C[C@@H]1C[C@@H]2C[C@@H]2N1C(=O)CNC(=O)c1ccnc2cc(C3(C(F)(F)F)CC3)ccc12         IC50    0.58 nM

---

pIC50: −log10 of the molar value.
Here, compounds appear alongside pIC50 reported for UniProt Q12884 in the literature.
measureName: pIC50

> print(dat)
                                    compound  numericvalue
 1  CC1(C)CCCN1c1ccc2nccc(C(=O)NCC(=O)N3CSC[C@H]3C#N)c2c1         10.01
 2  N#C[C@@H]1C[C@@H]2C[C@@H]2N1C(=O)CNC(=O)c1ccnc2cc(Cl)ccc12          9.74
 3  CC1(F)CCN(c2ccc3nccc(C(=O)NCC(=O)N4CSC[C@H]4C#N)c3c2)CC1          9.66
 4  CC(=O)N1CC2(C1)CN(c1ccc3nccc(C(=O)NCC(=O)N4CSC[C@H]4C#N)c3c1)C2          9.66
 5  N#Cc1ccccc1Cn1c(N2CCC[C@@H](N)C2)nc2cc(C(=O)NCc3ccc(C(F)(F)F)cc3)sc2c1=O          3.84
 6  COC(C)(C)c1ccc2nccc(C(=O)NCC(=O)N3[C@H](C#N)C[C@@H]4C[C@@H]43)c2c1          9.09
 7  CC(F)(F)CC1CN(c2ccc3nccc(C(=O)NCC(=O)N4CSC[C@H]4C#N)c3c2)C1         10.00
 8  Cc1cc(C(=O)NCC(=O)N2[C@H](C#N)C[C@@H]3C[C@@H]32)c2cc(F)ccc2n1          7.49
 9  N#C[C@@H]1CSCN1C(=O)CNC(=O)c1ccnc2ccc(N3CC4CCCC4C3)cc12 (stereo partly drawn)          9.74
10  N#C[C@@H]1C[C@@H]2C[C@@H]2N1C(=O)CNC(=O)c1ccnc2ccc(OCC3CC3)cc12          9.19
11  CS(=O)(=O)C[C@H]1CN(c2ccc3nccc(C(=O)NCC(=O)N4CSC[C@H]4C#N)c3c2)CCO1         10.13
12  N#C[C@@H]1CSCN1C(=O)CNC(=O)c1ccnc2ccc(N3CCC(C(F)(F)F)CC3)cc12         10.00
13  CC(C)C1(O)CCN(c2ccc3nccc(C(=O)NCC(=O)N4CSC[C@H]4C#N)c3c2)CC1         10.29
14  CC1(C)CCCN(c2ccc3nccc(C(=O)NCC(=O)N4CSC[C@H]4C#N)c3c2)C1=O          9.92
15  CC(F)(F)C1CN(c2ccc3nccc(C(=O)NCC(=O)N4CSC[C@H]4C#N)c3c2)C1         10.17
16  C[C@@H]1CN(c2ccc3nccc(C(=O)NCC(=O)N4CSC[C@H]4C#N)c3c2)C[C@H](C)[C@@H]1O          9.80
17  N#C[C@@H]1CSCN1C(=O)CNC(=O)c1ccnc2ccc(N3C[C@@H]4CCC[C@@H]43)cc12 (mixture of isomers)          9.66
18  N#C[C@@H]1CSCN1C(=O)CNC(=O)c1ccnc2ccc(N3CC(C(F)F)C3)cc12         10.00
19  COC(=O)[C@@H](NC(=O)c1csc2c(=O)n(Cc3ccccc3C#N)c(N3CCC[C@@H](N)C3)nc12)c1ccccc1          4.73
20  N#C[C@@H]1CSCN1C(=O)CNC(=O)c1ccnc2ccc(N3C[C@@H](F)[C@H](F)C3)cc12         10.10
21  CC(O)c1ccc2c(C(=O)NCC(=O)N3[C@H](C#N)C[C@@H]4C[C@@H]43)ccnc2c1 (stereo partly drawn)          9.43
22  N#C[C@@H]1C[C@@H]2C[C@@H]2N1C(=O)CNC(=O)c1ccnc2cc(C3(C#N)CC3)ccc12          9.31
23  CC1(c2ccc3c(C(=O)NCC(=O)N4[C@H](C#N)C[C@@H]5C[C@@H]54)ccnc3c2)CC1          8.70
24  N#C[C@@H]1CSCN1C(=O)CNC(=O)c1ccnc2ccc(-n3ccnc3-c3ccccc3)cc12          9.17
25  N#C[C@@H]1CSCN1C(=O)CNC(=O)c1ccnc2ccc(N3CC(CCF)C3)cc12          9.82
26  CC[C@H]1COCCN1c1ccc2nccc(C(=O)NCC(=O)N3CSC[C@H]3C#N)c2c1         10.10
27  CCOC1(c2ccc3nccc(C(=O)NCC(=O)N4[C@H](C#N)C[C@@H]5C[C@@H]54)c3c2)CC1          9.12
28  N#Cc1ccccc1Cn1c(N2CCC[C@@H](N)C2)nc2cc(C(=O)NCc3cccc(C(F)(F)F)c3)sc2c1=O          4.06
29  N#C[C@@H]1C[C@@H]2C[C@@H]2N1C(=O)CNC(=O)c1ccnc2ccc(COC(F)(F)F)cc12          9.42
30  CC1(C)CCN(c2ccc3nccc(C(=O)NCC(=O)N4CSC[C@H]4C#N)c3c2)C1          9.96
